# SYSTEM NAME: human skin chymase (Homo sapiens)
# Construct: using human skin chymase (Cortex Biochem); purchased Cortex Biochem
# Sequence (P23946 22-247): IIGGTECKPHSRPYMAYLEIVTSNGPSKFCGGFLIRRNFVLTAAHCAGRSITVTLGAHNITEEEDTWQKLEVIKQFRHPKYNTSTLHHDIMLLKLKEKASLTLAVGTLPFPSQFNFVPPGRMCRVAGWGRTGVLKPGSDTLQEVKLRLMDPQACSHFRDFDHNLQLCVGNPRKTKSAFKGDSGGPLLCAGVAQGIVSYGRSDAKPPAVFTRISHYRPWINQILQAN
# MEASUREMENT NOTES: Enzyme-catalyzed hydrolysis assay (chymase inhibition)
# Format: biochemical
# REPORTED CONDITIONS: 10 nM enzyme, 0.7 mM Suc-Ala-Ala-Pro-Phe-pNa, pH 8.0, 37° C., 30 minutes
Binary label based on IC50 with cut-off 0.5 µM: below gives met, not below gives not met.

(Q) Answer whether the compound O=C(Nc1ccc2ncccc2c1)C(c1cccc2ccccc12)P(=O)(O)O (stereo not drawn) [Cpd 79] has IC50 strictly less than 0.5 µM
(A) not met

(Q) Answer whether the compound O=C(Nc1ccc2[nH]ccc2c1)C(c1cccc2ccccc12)P(=O)(O)O (stereo not drawn) [Cpd 129] has IC50 strictly less than 0.5 µM
(A) not met

(Q) Answer whether the compound O=C(NC=Cc1ccc(O)cc1)C(c1csc2ccc(Cl)cc12)P(=O)(O)O (stereo not drawn) [Cpd 66] has IC50 strictly less than 0.5 µM
(A) not met

(Q) Answer whether the compound O=C(Nc1ccc2ccccc2c1)C(c1csc2ccc(Cl)cc12)P(=O)(O)CCCc1ccccc1 (stereo not drawn) [Cpd 48] has IC50 strictly less than 0.5 µM
(A) met

(Q) Answer whether the compound O=C(Nc1ccc2ccccc2c1)C(c1csc2ccc(Cl)cc12)P(=O)(O)CCCCc1ccccc1 (stereo not drawn) [Cpd 51] has IC50 strictly less than 0.5 µM
(A) met

(Q) Answer whether the compound O=C(Nc1ccc2sccc2c1)C(c1csc2ccc(Cl)cc12)P(=O)(O)O (stereo not drawn) [Cpd 55] has IC50 strictly less than 0.5 µM
(A) not met
